For each of the compounds below, state its pIC50.
pIC50: −log10 of the molar value.

Identify measured pIC50 obtained with UniProt:Q9YQ12 for CC1(C)CCC[C@](C)([C@H]2CC[C@]3(C)[C@@H]2[C@H](O)C[C@@H]2[C@@]4(C)CC[C@H](O)C(C)(C)[C@@H]4[C@@H](O)C[C@]23C)O1 [PANAXATRIOL] .
< 3.68

Specify the recorded pIC50 for COC(=O)[C@@]1(O)C[C@]2(C)[C@H]3C[C@@H](O)[C@@H]4[C@@H]([C@@]5(C)CCCC(C)(C)O5)CC[C@@]4(C)[C@]3(C)CC[C@H]2C1(C)C , system: UniProt:Q9YQ12.
< 3.70

Find the measured pIC50 of CC1(C)CCC[C@](C)([C@H]2CC[C@]3(C)[C@@H]2C(=O)C[C@@H]2[C@@](C)(CC(=O)O)[C@H](C(C)(C)C(=O)O)CC[C@]23C)O1 with UniProt:Q9YQ12 as test system.
4.64

State measured pIC50 of the compound CC1(C)CCC[C@](C)([C@H]2CC[C@]3(C)[C@@H]2C(=O)C[C@@H]2[C@@]4(C)CCC(=O)C(C)(C)[C@@H]4CC[C@]23C)O1 with UniProt:Q9YQ12.
< 3.66

# lookup: UniProt:Q9YQ12 pIC50, key = CC1(C)CCC[C@](C)([C@H]2CC[C@]3(C)[C@@H]2[C@H](O)C[C@@H]2[C@@]4(C)CC[C@H](O)C(C)(C)[C@@H]4CC[C@]23C)O1 [PANAXADIOL]
< 3.66

====

procedureDetails: Inhibition of HCV protease by fluorometric method
Set-up: species or system Hepacivirus hominis
measurementType: IC50

Using the record for COC(=O)[C@@]1(O)C[C@]2(C)[C@H]3C[C@@H](O)[C@@H]4[C@@H]([C@@]5(C)CCCC(C)(C)O5)CC[C@@]4(C)[C@]3(C)CC[C@H]2C1(C)C , state its measured IC50.
> 198 µM

Write down IC50 measured for item CC1(C)CCC[C@](C)([C@H]2CC[C@]3(C)[C@@H]2[C@H](O)C[C@@H]2[C@@]4(C)C=C(O)C(=O)C(C)(C)[C@@H]4CC[C@]23C)O1
> 212 µM

For the compound CC1(C)CCC[C@](C)([C@H]2CC[C@]3(C)[C@@H]2[C@H](O)C[C@@H]2[C@@]4(C)CCC(=O)C(C)(C)[C@@H]4CC[C@]23C)O1 , report IC50.
> 218 µM

Please list IC50 recorded for the compound CC1(C)CCC[C@](C)([C@H]2CC[C@]3(C)[C@@H]2[C@H](O)C[C@@H]2[C@@](C)(CC(=O)O)[C@H](C(C)(C)C(=O)O)CC[C@]23C)O1
> 198 µM

Please list IC50 recorded for the compound CC1(C)CCC[C@](C)([C@H]2CC[C@]3(C)[C@@H]2[C@H](O)C[C@@H]2[C@@]4(C)CC[C@H](O)C(C)(C)[C@@H]4[C@@H](O)C[C@]23C)O1
> 210 µM

Given CC1(C)CCC[C@](C)([C@H]2CC[C@]3(C)[C@@H]2[C@H](O)C[C@@H]2[C@@]4(C)C[C@](O)(C(=O)O)C(C)(C)[C@@H]4C(=O)C[C@]23C)O1 , respond with its IC50.
> 213 µM

Read off the recorded IC50 for CC1(C)CCC[C@](C)([C@H]2CC[C@]3(C)[C@@H]2[C@H](O)C[C@@H]2[C@@]4(C)CC[C@H](OC(=O)CC(C)(C)C(=O)O)C(C)(C)[C@@H]4[C@@H](OC(=O)CC(C)(C)C(=O)O)C[C@]23C)O1
1.8 µM

Give the measured IC50 for CC1(C)CCC[C@](C)([C@H]2CC[C@]3(C)[C@@H]2[C@H](O)C[C@@H]2[C@@]4(C)CCC(=O)C(C)(C)[C@@H]4C(=O)C[C@]23C)O1
> 213 µM

Let me know recorded IC50 for CC1(C)CCC[C@](C)([C@H]2CC[C@]3(C)[C@@H]2C(=O)C[C@@H]2[C@@]4(C)CCC(=O)C(C)(C)[C@@H]4CC[C@]23C)O1 , thanks.
72.3 µM

# return recorded IC50 for input CC1(C)CCC[C@](C)([C@H]2CC[C@]3(C)[C@@H]2C(=O)C[C@@H]2[C@@](C)(CC(=O)O)[C@H](C(C)(C)C(=O)O)CC[C@]23C)O1
9.1 µM

====

procedureDetails: Inhibition of trypsin up to 1 ug/mL
reportedConditions: in the assay text read “1 mg/mL” for “1 ug/mL”
The source made the active and inactive calls. The rule behind the calls is not given here.
measurementType: Activity

{"smilesRepresentation": "CC1(C)CCC[C@](C)([C@H]2CC[C@]3(C)[C@@H]2[C@H](O)C[C@@H]2[C@@]4(C)CC[C@H](OC(=O)CC(C)(C)C(=O)O)C(C)(C)[C@@H]4[C@@H](OC(=O)CC(C)(C)C(=O)O)C[C@]23C)O1", "experimentalResult": "inactive"}
{"smilesRepresentation": "CC1(C)CCC[C@](C)([C@H]2CC[C@]3(C)[C@@H]2[C@H](O)C[C@@H]2[C@@]4(C)CC[C@H](OC(=O)CC(C)(C)C(=O)O)C(C)(C)[C@@H]4[C@@H](O)C[C@]23C)O1", "experimentalResult": "inactive"}

====

Hi there, I'd appreciate the recorded pIC50 for every entry that follows.
Expect pIC50 as a plain number equal to -log10 of the molar concentration.

Give pIC50; test system Protease (Human immunodeficiency virus 1); molecule CC1(C)CCC[C@](C)([C@H]2CC[C@]3(C)[C@@H]2[C@H](O)C[C@@H]2[C@@]4(C)CC[C@H](OC(=O)CC(C)(C)C(=O)O)C(C)(C)[C@@H]4CC[C@]23C)O1
5.57

Give pIC50; test system Protease (Human immunodeficiency virus 1); molecule CC1(C)CCC[C@](C)([C@H]2CC[C@]3(C)[C@@H]2[C@H](O)C[C@@H]2[C@@]4(C)C=C(O)C(=O)C(C)(C)[C@@H]4CC[C@]23C)O1
4.55

Give reported pIC50 for CC1(C)CCC[C@](C)([C@H]2CC[C@]3(C)[C@@H]2[C@H](O)C[C@@H]2[C@@]4(C)CC[C@H](O)C(C)(C)[C@@H]4[C@@H](OC(=O)CC(C)(C)C(=O)O)C[C@]23C)O1 (Protease (Human immunodeficiency virus 1))
5.57

====

Exercise: for every item that follows, state its recorded IC50.
procedureDetails: Inhibition of HCV protease by fluorometric method
Design: species or system Hepacivirus hominis
# value in µM; strip the unit string

Provide only the value of recorded IC50 for CC1(C)CCC[C@](C)([C@H]2CC[C@]3(C)[C@@H]2C(=O)C[C@@H]2[C@@]4(C)CC[C@H](OC(=O)CC(C)(C)C(=O)O)C(C)(C)[C@@H]4CC[C@]23C)O1
62.2

Tell me IC50 reported for CC1(C)CCC[C@](C)([C@H]2CC[C@]3(C)[C@@H]2[C@H](O)C[C@@H]2[C@@]4(C)CC[C@H](OC(=O)CC(C)(C)C(=O)O)C(C)(C)[C@@H]4CC[C@]23C)O1
30.4

====

procedureDetails: Inhibition of HCV protease by fluorometric method
Parameters: species or system Hepacivirus hominis
pIC50: −log10 of the molar value.
measurementType: pIC50

State its pIC50 for this compound: CC1(C)CCC[C@](C)([C@H]2CC[C@]3(C)[C@@H]2[C@H](O)C[C@@H]2[C@@]4(C)CC[C@H](O)C(C)(C)[C@@H]4[C@@H](OC(=O)CC(C)(C)C(=O)O)C[C@]23C)O1
< 3.78

Read the entry CC1(C)CCC[C@](C)([C@H]2CC[C@]3(C)[C@@H]2C(=O)C[C@@H]2[C@@]4(C)CC[C@H](OC(=O)CC(C)(C)C(=O)O)C(C)(C)[C@@H]4[C@@H](OC(=O)CC(C)(C)C(=O)O)C[C@]23C)O1 and write its reported pIC50.
4.72

Annotate the compound CC1(C)CCC[C@](C)([C@H]2CC[C@]3(C)[C@@H]2[C@H](O)C[C@@H]2[C@@]4(C)CC[C@H](OC(=O)CC(C)(C)C(=O)O)C(C)(C)[C@@H]4[C@@H](O)C[C@]23C)O1 with its measured pIC50.
< 3.78

Using the record for CC1(C)CCC[C@](C)([C@H]2CC[C@]3(C)[C@@H]2[C@H](O)C[C@@H]2[C@@]4(C)CC[C@H](O)C(C)(C)[C@@H]4CC[C@]23C)O1 [PANAXADIOL] , state its measured pIC50.
< 3.66

Look up pIC50 of CC1(C)CCC[C@](C)([C@H]2CC[C@]3(C)[C@@H]2C(=O)C[C@@H]2[C@@]4(C)CCC(=O)C(C)(C)[C@@H]4C(=O)C[C@]23C)O1 and report it.
< 3.67
